Tested on: FADD-deficient variant of human Jurkat T cells
Protocol: TNF-α induced necroptosis inhibition, ATP-based viability assessment
Type: cell-based
Test Context: Jurkat; 10 ng/mL human TNF-α, 24 hours, CellTiter-Glo viability
Value Kind: pEC50
In simple prose, pEC50 is minus the logarithm base ten of a concentration in moles per litre.

Ask | Could you tell me which pEC50 is on file for N#Cc1ccc(Cn2cnc3sc4c(c3c2=O)CCC4)cc1 [(54)] ?
Reply | 6.07

Ask | Could you tell me which pEC50 is on file for C=CC1(O)c2ccccc2CCc2ccccc21 [(31)] ?
Reply | 5.53

Ask | Could you tell me which pEC50 is on file for COc1cc(C2CC(=O)NC(SCC(=O)Nc3nccs3)=C2C#N)cc(OC)c1OC (centres unmarked) [(1)] ?
Reply | 6.32

Ask | Could you tell me which pEC50 is on file for Cc1sc2ncn(Cc3ccccc3)c(=O)c2c1C [(49)] ?
Reply | 5.42

Ask | Could you tell me which pEC50 is on file for CCSCC(=O)Nc1ccc(F)cc1 [(64)] ?
Reply | 4.85

Ask | Could you tell me which pEC50 is on file for CNS(=O)(=O)c1cccc(C(=O)OCC(=O)N2CCCc3ccccc32)c1 [(68)] ?
Reply | 5.79

Ask | Could you tell me which pEC50 is on file for CNC(Cc1ccccc1)=C1C(=O)CC(C)(C)CC1=O [(67)] ?
Reply | 5.65

Ask | Could you tell me which pEC50 is on file for CC(C)(C)OC(=O)Nc1ccc(-c2cc[nH]n2)cc1 [Compound (13)] ?
Reply | 5.27

Ask | Could you tell me which pEC50 is on file for COC(=O)C1C(=O)NC(SCC(=O)Nc2nccs2)=C(C#N)C1c1ccc(Cl)cc1 (centres unmarked) [(5)] ?
Reply | 4.60

Ask | Could you tell me which pEC50 is on file for CCN(CC)S(=O)(=O)c1ccc(C(=O)/N=c2\[nH]ccs2)cc1 [Compound (58)] ?
Reply | 5.05

Ask | Could you tell me which pEC50 is on file for Cc1s/c(=N\C(=O)C2=NNC(=O)CC2)[nH]c1-c1ccc(F)cc1 [(70)] ?
Reply | 6.04

Ask | Could you tell me which pEC50 is on file for COc1ccccc1C1CC(=O)NC(SCC(=O)Nc2nccs2)=C1C#N (centres unmarked) [(7)] ?
Reply | 5.62

Ask | Could you tell me which pEC50 is on file for O=C(C1=NNCC1c1ccccc1)c1ccccc1 (centres unmarked) [Compound (15)] ?
Reply | 6.43

Ask | Could you tell me which pEC50 is on file for C#CC1(O)c2ccccc2CCc2ccc(F)cc21 (centres unmarked) [(32)] ?
Reply | 5.70

Ask | Could you tell me which pEC50 is on file for Cc1ccc(C(=O)C2=NNCC2c2ccccc2)cc1 (centres unmarked) [(19)] ?
Reply | 6.43

Ask | Could you tell me which pEC50 is on file for C#CC1(O)c2ccccc2CCc2c(F)cccc21 (centres unmarked) [(33)] ?
Reply | 5.32

Ask | Could you tell me which pEC50 is on file for N#CC1=C(SCC(=O)Nc2nccs2)NC(=O)CC1c1ccccc1F (centres unmarked) [(2)] ?
Reply | 6.11

Ask | Could you tell me which pEC50 is on file for O=C(N1N=CCC1c1ccccc1)C12CC3CC(CC(C3)C1)C2 (centres unmarked) [Compound (14)] ?
Reply | 6.39

Ask | Could you tell me which pEC50 is on file for C#CC(O)(c1ccccc1)c1ccccc1 [(29)] ?
Reply | 4.50
